The reported measurements were obtained from patent US9353100B2.

# Test system: HCV genotype 1a H77 strain subgenomic luciferase replicon (H1a-luc) in Huh-7 cells
# Protocol notes: HCV luciferase replicon assay, genotype 1a (H1a-luc)
# Assay type: cell-based
# Condition description: EC50 against genotype 1a HCV divided by EC50 against genotype 1b, replicon luciferase assay
Please use Criterion met whenever FS (1a/1b) is not below 8, and Criterion not met whenever it is.

Previously resolved entries follow.
INSERT INTO measurements (test_smiles, group_label) VALUES
  ('CN1CCCC/C=C\[C@@H]2C[C@@]2(C(=O)NS(=O)(=O)C2(C)CC2)NC(=O)[C@@H]2C[C@@H](Oc3cc(-c4nc(C(F)(F)F)cs4)nc(-c4nc(C(F)(F)F)cs4)n3)CC[C@H]2C1=O', 'Criterion not met'),
  ('Cc1csc(-c2cc(O[C@H]3CC[C@H]4C(=O)N(C)CCCC/C=C\[C@@H]5C[C@@]5(C(=O)NS(=O)(=O)C5(C)CC5)NC(=O)[C@@H]4C3)cc(-c3nc(C(F)(F)F)cs3)n2)n1', 'Criterion not met'),
  ('CC(C)c1csc(-c2cc(O[C@H]3CC[C@H]4C(=O)N(C)CCCC/C=C\[C@@H]5C[C@@]5(C(=O)NS(=O)(=O)C5(C)CC5)NC(=O)[C@@H]4C3)nc(-c3nc(C(F)(F)F)cs3)n2)n1', 'Criterion not met');

Please check the record CN1CCCC/C=C\[C@@H]2C[C@@]2(C(=O)NS(=O)(=O)C2(C)CC2)NC(=O)[C@@H]2C[C@@H](Oc3nc(-c4cccc(C(F)(F)F)c4)sc3-c3ccccc3)CC[C@H]2C1=O and state if its FS (1a/1b) is at or above 8. Criterion met

Please check the record Cc1csc(-c2cc(O[C@H]3CC[C@H]4C(=O)N(C)CCCC/C=C\[C@@H]5C[C@@]5(C(=O)NS(=O)(=O)C5(C)CC5)NC(=O)[C@@H]4C3)nc(-c3nc(C(F)(F)F)cs3)n2)n1 and state if its FS (1a/1b) is at or above 8. Criterion not met
